Entries and their pKd values follow.
target system: T1, mouse programmed cell death protein 1 Fc fusion protein (mPD-1-Fc), mPD-1 C60S (aa 25-167) (Mus musculus, UniProt Q02242, stabilised)
T1 construct: not cleaved; source: Expi293F, purified (Protein A, SEC; dimeric fraction); not shown: Fc (human), C-terminal, kept
protocol description: SPR; Carterra LSA; Fab from the ammonium sulfate precipitate of the culture supernatant immobilised on a NiHC200M chip; hPD-1 (1-1024 nM) or mPD-1-Fc (4-1024 nM) as analyte, fourfold dilution series, no regeneration; HBS-EP pH 7.4, 25 °C; medians over the spots of a construct, KD = koff/kon
condition info: one partner purified
pKd: −log10 of the molar value.
experimental readout: pKd

binder	experimental readout	recorded result
toripalimab Fab L.S97A (Fab, V domains shown, as the heavy chain of Sm3; light chain of Sm3 with this change; numbers count from the chain's first residue; source: Brevibacillus, culture supernatant (ammonium sulfate precipitate); not shown: 6xHis, C-terminal, kept; 6xHN, C-terminal, kept) VH: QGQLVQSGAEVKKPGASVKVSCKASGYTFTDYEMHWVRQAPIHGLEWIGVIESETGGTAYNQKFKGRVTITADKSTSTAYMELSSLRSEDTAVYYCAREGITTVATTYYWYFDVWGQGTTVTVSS VL: DVVMTQSPLSLPVTLGQPASISCRSSQSIVHSNGNTYLEWYLQKPGQSPQLLIYKVSNRFSGVPDRFSGSGSGTDFTLKISRVEAEDVGVYYCFQGAHVPLTFGQGTKLEIK	pKd	6.17
toripalimab Fab H.G56A (Fab, V domains shown, heavy chain of Sm3 with this change; numbers count from the chain's first residue; as the light chain of Sm3; source: Brevibacillus, culture supernatant (ammonium sulfate precipitate); not shown: 6xHis, C-terminal, kept; 6xHN, C-terminal, kept) VH: QGQLVQSGAEVKKPGASVKVSCKASGYTFTDYEMHWVRQAPIHGLEWIGVIESETAGTAYNQKFKGRVTITADKSTSTAYMELSSLRSEDTAVYYCAREGITTVATTYYWYFDVWGQGTTVTVSS VL: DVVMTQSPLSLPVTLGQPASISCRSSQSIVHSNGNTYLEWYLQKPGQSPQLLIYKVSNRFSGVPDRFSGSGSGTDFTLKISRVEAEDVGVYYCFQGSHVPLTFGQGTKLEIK	pKd	6.81
toripalimab Fab L.S57Y (Fab, V domains shown, as the heavy chain of Sm3; light chain of Sm3 with this change; numbers count from the chain's first residue; source: Brevibacillus, culture supernatant (ammonium sulfate precipitate); not shown: 6xHis, C-terminal, kept; 6xHN, C-terminal, kept) VH: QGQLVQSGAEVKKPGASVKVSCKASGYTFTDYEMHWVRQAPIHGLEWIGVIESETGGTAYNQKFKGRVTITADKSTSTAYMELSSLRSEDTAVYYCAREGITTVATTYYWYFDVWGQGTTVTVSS VL: DVVMTQSPLSLPVTLGQPASISCRSSQSIVHSNGNTYLEWYLQKPGQSPQLLIYKVYNRFSGVPDRFSGSGSGTDFTLKISRVEAEDVGVYYCFQGSHVPLTFGQGTKLEIK	pKd	6.92
